Below are IC50 values recorded for UniProtKB Q9H7Z7.
Sequence (Q9H7Z7 whole entry): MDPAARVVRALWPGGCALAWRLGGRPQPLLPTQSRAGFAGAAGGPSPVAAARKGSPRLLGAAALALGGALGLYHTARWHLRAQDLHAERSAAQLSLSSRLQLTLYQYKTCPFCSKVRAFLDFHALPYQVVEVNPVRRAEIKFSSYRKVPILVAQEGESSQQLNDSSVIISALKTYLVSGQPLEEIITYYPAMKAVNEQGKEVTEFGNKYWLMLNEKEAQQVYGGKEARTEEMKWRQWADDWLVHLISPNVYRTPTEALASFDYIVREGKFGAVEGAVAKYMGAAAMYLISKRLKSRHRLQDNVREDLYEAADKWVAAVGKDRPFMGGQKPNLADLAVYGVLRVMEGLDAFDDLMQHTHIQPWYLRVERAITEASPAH

• CC(C)(O)Cc1ccc2c(c1)c1cc(OCCC3CC3)ccc1c1[nH]c(-c3c(C#N)cc(F)cc3C#N)nc21 = > 30 µM
• N#Cc1cccc(C#N)c1-c1nc2c3ccc(Cl)cc3c3ccccc3c2[nH]1 = > 30 µM

// below: IC50 requested for another compound
Request: IC50, test system UniProtKB Q9H7Z7, entry CC(C)(O)C#Cc1ccc2c(c1)c1cc(Cl)ccc1c1nc(-c3c(C#N)cccc3C#N)[nH]c21 > 30 µM

---

# Lookup of reported remaining at 2 h keyed by entry
- Method: Metabolic stability in rat liver hepatocytes assessed as compound remaining after 2 hrs
- Assay type: ADME, cell-based, Hepatocyte
- Test settings: read-out: Stability
Please give a number only; it is taken to be in %.

* CC(C)(O)Cc1ccc2c(c1)c1cc(OCCC3CC3)ccc1c1[nH]c(-c3c(C#N)cc(F)cc3C#N)nc21 | 68
* CC(C)(O)Cc1ccc2c(c1)c1cc(OCCCC(F)(F)F)ccc1c1nc(-c3c(C#N)cccc3C#N)[nH]c21 | 92
* CC(C)(O)C#Cc1ccc2c(c1)c1cc(Cl)ccc1c1nc(-c3c(C#N)cccc3C#N)[nH]c21 | 97

Find the recorded remaining at 2 h belonging to CC(C)CCOc1ccc2c(c1)c1cc(CC(C)(C)O)ccc1c1[nH]c(-c3c(C#N)cccc3C#N)nc21 and report it. 8

Data origin: ChEMBL document CHEMBL1156058
